Cited source for all entries: PubChem BioAssay AID624466

- tested-on: Trace amine-associated receptor 1 (Homo sapiens) (UniProt Q96RJ0)
- Sequence (Q96RJ0 whole entry, looked up): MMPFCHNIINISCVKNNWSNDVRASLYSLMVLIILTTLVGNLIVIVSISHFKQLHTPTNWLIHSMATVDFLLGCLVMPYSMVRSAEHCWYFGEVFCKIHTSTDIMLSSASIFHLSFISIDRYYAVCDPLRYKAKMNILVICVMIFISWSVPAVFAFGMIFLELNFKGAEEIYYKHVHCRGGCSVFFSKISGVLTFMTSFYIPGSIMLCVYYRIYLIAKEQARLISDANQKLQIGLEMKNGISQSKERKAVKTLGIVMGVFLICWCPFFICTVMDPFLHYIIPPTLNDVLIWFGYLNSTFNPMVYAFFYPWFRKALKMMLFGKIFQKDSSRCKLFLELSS
- test: blockers of beta-PEA-driven TAAR1 calcium signal – Fluo-8 calcium fluorescence, CHO RD-HGA16 cells, primary screen (AID 624466)
- run-conditions: CHO RD-HGA16 TAAR1, Fluo-8 calcium fluorescence, antagonist; at 3 µM
Screen size: about 360,000 compounds; about 5,400 (1.5%) were called active.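 The calls were made as follows: active = inhibition above a per-plate cutoff, the mean inhibition of test compounds on that plate plus 3 SD (cut at about 49% in these data); inactive = the rest.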 For the sample, actives were picked, then their nearest neighbours and some compounds at random.
Log the outcome using a class from active, inactive

Q: Short answer needed: outcome of this test for CC(C)CN1C(=O)CN(S(C)(=O)=O)CC1(C)C(=O)NCc1ccccc1 (stereo unspecified) ?
Result: inactive

Q: Short answer needed: outcome of this test for "Cc1ccsc1C(=O)NNC(=O)COc1ccc(Br)cc1" ?
Result: inactive

Q: Short answer needed: outcome of this test for CC1CCCN(c2cccc3c2S(=O)(=O)N(Cc2ccc(F)cc2)[C@@H](C)[C@H](c2ccccc2)O3)C1 (stereo partly specified) ?
Result: inactive

Q: Short answer needed: outcome of this test for "O=[N+]([O-])c1ccc(N/N=C/c2ccccc2)cc1" ?
Result: active

Q: Short answer needed: outcome of this test for "CCOc1ccc(C(=O)NC(=S)Nc2ccc(N3CCOCC3)c(Cl)c2)cc1[N+](=O)[O-]" ?
Result: active

Q: Short answer needed: outcome of this test for "CCOc1ccc(C(=O)NC(=S)Nc2ccc(NC(=O)C(C)C)cc2)cc1[N+](=O)[O-]" ?
Result: inactive

Q: Short answer needed: outcome of this test for "Cn1cccc1C(=O)NNC(=O)COc1ccc(Br)cc1" ?
Result: inactive

Q: Short answer needed: outcome of this test for CSc1ncccc1C(=O)N1CCCC(Nc2ccc(F)c(F)c2)C1 (stereo unspecified) ?
Result: inactive

Q: Short answer needed: outcome of this test for "O=C(c1ccc(C(F)(F)F)cc1)N1CCC(=O)N([C@H](COCc2ccccc2)Cc2ccccc2)CC1" ?
Result: inactive

Q: Short answer needed: outcome of this test for COc1cc(C(=O)OC(C)C(=O)NCC2CCCCC2)cc(NC(=O)c2ccco2)c1OC (stereo unspecified) ?
Result: inactive

Q: Short answer needed: outcome of this test for "NC(=O)c1ncn([C@@H]2O[C@H](C(=O)O)[C@@H](O)[C@H]2O)n1" ?
Result: inactive

Q: Short answer needed: outcome of this test for "CCCc1cc(C(=O)Nc2ccc(Cl)cn2)cs1" ?
Result: inactive

Q: Short answer needed: outcome of this test for CC(C)CC1NC(=O)c2cc(Cl)ccc2-n2c1nc1ccccc1c2=O (stereo unspecified) ?
Result: inactive

Q: Short answer needed: outcome of this test for "S=C(NCCCc1cnc[nH]1)NCCCN(Cc1ccc(Cl)c(Cl)c1)c1ccc(Br)cn1" ?
Result: active

Q: Short answer needed: outcome of this test for "O=C(C(=O)N1CCC(CNS(=O)(=O)Cc2ccccc2)CC1)c1cc2ccccc2o1" ?
Result: inactive
